Target: CYP11A1 (Homo sapiens, UniProt P05108)
Construct: measuring the cellular production of pregnenolone (P) catalyzed by CYP11A1
Sequence (P05108 40-521): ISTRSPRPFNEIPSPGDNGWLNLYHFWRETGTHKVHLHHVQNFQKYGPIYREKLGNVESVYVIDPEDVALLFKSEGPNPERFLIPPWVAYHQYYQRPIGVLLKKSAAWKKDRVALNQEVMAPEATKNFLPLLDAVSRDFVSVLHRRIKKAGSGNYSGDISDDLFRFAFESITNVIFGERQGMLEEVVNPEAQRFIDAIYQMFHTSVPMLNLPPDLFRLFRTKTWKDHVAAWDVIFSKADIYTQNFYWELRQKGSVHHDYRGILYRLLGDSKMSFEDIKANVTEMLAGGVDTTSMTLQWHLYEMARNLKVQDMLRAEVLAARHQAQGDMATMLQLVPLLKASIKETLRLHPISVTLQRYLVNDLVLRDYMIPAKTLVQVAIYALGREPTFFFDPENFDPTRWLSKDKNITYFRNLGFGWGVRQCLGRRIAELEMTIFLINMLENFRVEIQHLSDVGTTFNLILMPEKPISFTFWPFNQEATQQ
Assay: H295R Steroid Biosynthesis Inhibition Assay - inhibition of pregnenolone (P) production catalyzed by CYP11A1 in NCI-H295R cells
Settings: 48 h, LC-MS/MS, read-out: Inh. of P IC50
pIC50: −log10 of the molar value.
Test readout: pIC50

Q) Value lookup for pIC50; key = CS(=O)(=O)N1CCC(COc2coc(CN3CCn4c(Cl)ccc4C3)cc2=O)CC1
A) ≥ 7.40

Q) Request the reported pIC50 associated with CC(C)NC(=O)N1CCC(c2cnc3cc(CN4Cc5ccccc5C4)ccc3n2)CC1
A) 7.00 to 7.40

Q) # query: pIC50 of entry Cn1ccc(C(=O)N2CCC(c3cnc4cc(CN5Cc6ccccc6C5)ccc4n3)CC2)n1
A) ≥ 7.40

Shift focus to the following entry.
Q) // pIC50 lookup, key: C[C@]1(c2cc3oc(CN4Cc5ccccc5C4)cc(=O)c3o2)CC[C@H](O)CC1
A) ≥ 7.40

----------
Molecular target: CYP11A1 (Homo sapiens, UniProt P05108)
Construct: measuring the cellular production of pregnenolone (P) catalyzed by CYP11A1
Assay: H295R Steroid Biosynthesis Inhibition Assay - inhibition of pregnenolone (P) production catalyzed by CYP11A1 in NCI-H295R cells
Conditions: 48 h, LC-MS/MS, read-out: Inh. of P IC50
Test readout: IC50

Q) Quick one: IC50 of CS(=O)(=O)N1CCC(c2cc3oc(CN4Cc5ccccc5C4)cc(=O)c3o2)CC1 ?
A) ≤ 40 nM

Q) # input compound: O=S(=O)(c1ccccc1)N1CCC(c2cnc3cc(CN4Cc5ccccc5C4)ccc3n2)CC1 ; wanted: its IC50
A) ≤ 40 nM

***
Q) Param item = CC(C)(O)[C@H]1CC[C@H](c2cc3oc(CN4Cc5ccccc5C4)cc(=O)c3o2)CC1 ; retrieve measured IC50.
A) 40 to 100 nM

Q) Need IC50, item CS(=O)(=O)N1CCC(c2cnc3cc(CN4Cc5ccc(C(F)(F)F)cc5C4)ccc3n2)CC1
A) ≤ 40 nM

Q) Endpoint output: IC50 of CS(=O)(=O)N1CCC(COc2ccc(CN3CCc4ccccc4C3)c3cccnc23)CC1 . Value?
A) ≤ 40 nM

Q) Sample CNS(=O)(=O)c1ccc(-c2cc3oc(CN4Cc5ccccc5C4)cc(=O)c3o2)cc1 — what was its IC50?
A) ≤ 40 nM

Q) Return reported IC50; argument: O=c1cc(CN2Cc3ccccc3C2)oc2cc(C3CCC(O)C3)oc12 (centres unmarked)
A) ≤ 40 nM

Q) What value of IC50 has been recorded for this entry: CN(C)C(=O)[C@H]1CC[C@H](c2cc3oc(CN4Cc5ccccc5C4)cc(=O)c3o2)CC1
A) ≤ 40 nM

----------
Target: CYP11A1 (Homo sapiens, UniProt P05108)
Construct: measuring the cellular production of pregnenolone (P) catalyzed by CYP11A1
Sequence (P05108 40-521): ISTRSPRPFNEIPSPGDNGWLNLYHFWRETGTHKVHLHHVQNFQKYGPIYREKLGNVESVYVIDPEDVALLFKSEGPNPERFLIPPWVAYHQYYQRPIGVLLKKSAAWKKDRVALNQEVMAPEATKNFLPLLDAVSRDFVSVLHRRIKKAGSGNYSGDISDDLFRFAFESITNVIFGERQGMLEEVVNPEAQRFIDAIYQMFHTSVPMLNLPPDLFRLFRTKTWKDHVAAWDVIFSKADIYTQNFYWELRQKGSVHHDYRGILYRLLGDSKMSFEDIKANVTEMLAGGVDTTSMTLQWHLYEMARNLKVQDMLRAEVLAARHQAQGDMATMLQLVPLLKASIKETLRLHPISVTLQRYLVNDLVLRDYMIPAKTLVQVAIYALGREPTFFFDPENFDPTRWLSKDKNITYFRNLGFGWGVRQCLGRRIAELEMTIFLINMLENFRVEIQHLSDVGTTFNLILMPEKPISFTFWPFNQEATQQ
Assay: H295R Steroid Biosynthesis Inhibition Assay - inhibition of pregnenolone (P) production catalyzed by CYP11A1 in NCI-H295R cells
Details: 48 h, LC-MS/MS, read-out: Inh. of P IC50
pIC50: −log10 of the molar value.
Catalogue of pIC50 readings, one per entry.

These recorded examples may help you get a feel for the data.
Q) Entry C[C@]1(O)CC[C@H](c2cc3oc(CN4Cc5ccccc5C4)cc(=O)c3o2)CC1 has what pIC50?
A) ≥ 7.40

Q) Could you share which pIC50 value was measured for CS(=O)(=O)N1CCC(COc2ccc(C3(N4Cc5ccccc5C4)CC3)c3cccnc23)CC1 ?
A) 7.00 to 7.40

Q) I'd like to know its pIC50. The compound in question is CCS(=O)(=O)N1CCC(c2cnc3cc(CN4Cc5ccccc5C4)ccc3n2)CC1
A) ≥ 7.40

Q) # pIC50 lookup, item COc1ccc2c(c1)CN(Cc1cc(=O)c3oc(C4CCN(S(C)(=O)=O)CC4)cc3o1)C2
A) ≥ 7.40

Q) Could you tell me which pIC50 is on file for CC(=O)N1CCC(c2cnc3cc(CN4Cc5ccccc5C4)ccc3n2)CC1 ?
A) ≤ 7.00

Others:
Q) Sample O=c1cc(CN2CCn3cccc3C2)oc2cc([C@H]3CC[C@H](O)CC3)oc12 — what was its pIC50?
A) ≥ 7.40

Q) Could you share which pIC50 value was measured for COC(=O)N[C@H]1CC[C@H](c2cc3oc(CN4Cc5ccccc5C4)cc(=O)c3o2)CC1 ?
A) ≥ 7.40

Q) For the compound shown here, CC(C)(C)NC(=O)N1CCC(c2cnc3cc(CN4Cc5ccccc5C4)ccc3n2)CC1 , give the reported pIC50.
A) ≥ 7.40

Q) Find the recorded pIC50 belonging to COC(=O)N1CCC(c2cc3oc(CN4Cc5ccccc5C4)cc(=O)c3o2)CC1 and report it.
A) ≥ 7.40

Q) Which pIC50 reading was recorded for the compound O=c1cc(CN2Cc3ccccc3C2)oc2cc([C@H]3CC4CCC(C3)[C@H]4O)oc12 ?
A) 7.00 to 7.40

Q) Report pIC50 for Cn1c(C2CCN(S(C)(=O)=O)CC2)nc2ccc(CN3Cc4ccccc4C3)cc2c1=O please.
A) ≥ 7.40

Q) Name the reported pIC50 value associated with the compound CS(=O)(=O)N1CCC(c2cnc3cc(CN4CCn5cccc5C4)ccc3n2)CC1
A) ≤ 7.00

Q) Please report the recorded pIC50 for CS(=O)(=O)N1CCC(COc2ccc(CN3Cc4ccccc4C3)c3ccccc23)CC1 .
A) ≥ 7.40

Q) // query pIC50 value for entry CS(=O)(=O)N1CCC(c2nc3cc(CN4Cc5ccccc5C4)ccc3s2)CC1
A) ≥ 7.40

Q) I have this compound here, CS(=O)(=O)N1CCC(c2cnc3cc(CN4Cc5ccc(OC(F)F)cc5C4)ccc3n2)CC1 , and I need its recorded pIC50.
A) ≥ 7.40

Q) Given the entry CC(C)OC(=O)N1CCC(c2cnc3cc(CN4Cc5ccccc5C4)ccc3n2)CC1 , report its measured pIC50.
A) 7.00 to 7.40

Q) Entry CC(c1cc(=O)c2oc([C@H]3CC[C@H](O)CC3)cc2o1)N1Cc2ccccc2C1 (some centres unmarked) has what pIC50?
A) ≥ 7.40

----------
Target: CYP11A1 (Homo sapiens)
Construct: measuring the cellular production of pregnenolone (P) catalyzed by CYP11A1
Experiment: H295R Steroid Biosynthesis Inhibition Assay - inhibition of pregnenolone (P) production catalyzed by CYP11A1 in NCI-H295R cells
Settings: 48 h, LC-MS/MS, read-out: Inh. of P IC50
# IC50 per entry

Use the examples below as a reference point.
Q) What does the data say about its IC50? Entry: CS(=O)(=O)N1C[C@@H]2[C@H](C1)[C@H]2c1cc2oc(CN3Cc4ccccc4C3)cc(=O)c2o1 [Compound 13]
A) ≤ 40 nM

Q) Bench note: what IC50 did CNS(=O)(=O)N1CCC(c2cnc3cc(CN4Cc5ccccc5C4)ccc3n2)CC1 [Compound 100] show?
A) ≤ 40 nM

Q) Which measured IC50 value corresponds to O=S(=O)(C1CCCC1)N1CCC(c2cnc3cc(CN4Cc5ccccc5C4)ccc3n2)CC1 [Compound 96] ?
A) ≤ 40 nM

Others:
Q) Data request, read-out IC50, for Cn1c(C2CCN(S(C)(=O)=O)CC2)nc2ccc(CN3Cc4ccccc4C3)cc21 [Compound 130]
A) ≤ 40 nM

Q) Param item = CS(=O)(=O)N1CCC(c2ccc3cc(CN4CCn5cccc5C4)ccc3n2)CC1 [Compound 76] ; retrieve measured IC50.
A) 40 to 100 nM

Q) Report IC50 for CS(=O)(=O)N1CCC(c2ncc3cc(CN4Cc5ccccc5C4)ccc3n2)CC1 [Compound 82] please.
A) ≤ 40 nM

Q) Dear colleague, I am looking for the recorded IC50 of the following compound: O=c1cc(CN2Cc3ccccc3C2)oc2cc([C@H]3CC[C@@](O)(C(F)(F)F)CC3)oc12 [Compound 37]
A) 40 to 100 nM

Q) Recorded IC50 for CS(=O)(=O)N1CCC(c2ccc3cc(CN4Cc5ccccc5C4)cnc3c2)CC1 [Compound 67] , please?
A) ≤ 40 nM
